Here's a roundup of pIC50 values tested on Dual specificity protein kinase CLK1 (Homo sapiens), taken from various published works.
pIC50: −log10 of the molar value.

>>> df
                            molecule_smiles        result
0  CCNc1cc(Nc2ccc(C(=O)N3CCN(C(C)C)CC3)c3c2OCC3)nc2[nH]cc(C(F)(F)F)c12        > 7.00
1  COc1cc(S(C)(=O)=O)ccc1Nc1nc(N[C@@H]2CCOC2)c2c(C(F)(F)F)c[nH]c2n1  6.00 to 6.52
2  COc1cc(S(=O)(=O)N2CCOCC2)ccc1Nc1nc(NCC(C)C)c2cc[nH]c2n1  6.00 to 6.52
3  COCCNc1nc(Nc2ccc(S(=O)(=O)N3CCC(N4CCOCC4)CC3)cc2OC)nc2[nH]cc(C#N)c12        > 7.00
4  CC(C)Oc1nn(CCO)c2c1/C=C/c1n[nH]c3ccc(cc13)-c1cnn(C)c1O[C@@H](C)C(=O)N(C)C2          8.56
5  COc1cc(P(C)(C)=O)ccc1Nc1nc(NCC2CCCC2)c2c(C#N)c[nH]c2n1  6.00 to 6.52

Then this molecule:
Give pIC50 (Dual specificity protein kinase CLK1 (Homo sapiens)) of the following molecule: CNc1cc(Nc2ccc(P3(=O)CCN(C4COC4)CC3)cc2OC)nc2[nH]cc(C(F)(F)F)c12
> 7.00

----------
pIC50: −log10 of the molar value.
Here's a roundup of pIC50 values tested on Dual specificity protein kinase CLK1 (Homo sapiens), taken from various published works.

The following compounds have reported results that may help.
>>> print(df.to_string())
                                   compound        result
0  CCNc1nc(Nc2ccc(C(=O)N3C[C@@H]4C[C@H]3CO4)c3c2OCCO3)nc2[nH]cc(C(F)(F)F)c12        > 7.00
1  CC(C)CNc1nc(Nc2ccc(C(=O)N3CCOCC3)c3c2OCCO3)nc2[nH]cc(C(F)(F)F)c12  6.00 to 6.52
2  COc1cc(P2(=O)CCN(C3CC3)CC2)ccc1Nc1cc(NC2CCC2)c2c(C(F)(F)F)c[nH]c2n1  6.00 to 6.52
3  COc1cc(P2(=O)CCN(C3CC3)CC2)ccc1Nc1nc(NCC2CC2)c2c(C#N)c[nH]c2n1  6.00 to 6.52

What value of measured pIC50 is listed for COc1cc(P2(=O)CCN(C3COC3)CC2)ccc1Nc1nc(NCC2CCC2)c2c(C#N)c[nH]c2n1 ?
6.52 to 7.00

Also Cc1nn(C)c2c1/C=C/c1n[nH]c3ccc(cc13)-c1cnn(C)c1O[C@H]1CCCN(C2)C1 ?
8.81

Also CC(C)Oc1nn(CCO)c2c1/C=C/c1n[nH]c3cc(F)c(cc13)-c1cnn(C)c1O[C@@H](C)[C@H]1CCCN1C2 (single isomer, unassigned) ?
8.86

----------
Here's a roundup of pIC50 values tested on Dual specificity protein kinase CLK1 (Homo sapiens, UniProt P49759), taken from various published works.
pIC50: −log10 of the molar value.

>>> df
                            molecule_smiles  quantity_kind        result
0  COc1cc(S(=O)(=O)N2CCOCC2)ccc1Nc1cc(NCCS(C)(=O)=O)c2c(Cl)c[nH]c2n1          pIC50  6.00 to 6.52
1  CCNc1cc(Nc2ccc(S(=O)(=O)N3CCOCC3)cc2OC)nc2[nH]cc(C(F)(F)F)c12          pIC50  6.00 to 6.52
2  CCCNc1nc(Nc2ccc(P3(=O)CCN(C4CC4)CC3)cc2OC)nc2[nH]cc(C(F)(F)F)c12          pIC50  6.52 to 7.00
3  CC(C)Oc1nn(CCO)c2c1/C=C/c1n[nH]c3ccc(cc13)-c1cnn(C3CC3)c1O[C@@H](C)CN(C)C2          pIC50          9.12
4  COCCNc1cc(Nc2ccc(S(=O)(=O)N3CCC(N4CCOCC4)CC3)cc2OC)nc2[nH]cc(Cl)c12          pIC50  6.00 to 6.52
5  CC(C)Oc1nn(CCO)c2c1/C=C/c1n[nH]c3ccc(cc13)-c1cnn(C)c1O[C@@H](C)CN(C)[C@@H]2C          pIC50          9.07

What value of measured pIC50 is listed for COc1cc(P2(=O)CCN(C3CCOCC3)CC2)ccc1Nc1nc(NC2CCCCC2)c2cc[nH]c2n1 ?
6.00 to 6.52

Also CCNc1nc(Nc2ccc(C(=O)N3CCC(N4CCOCC4)CC3)c3c2OCO3)nc2[nH]cc(C(F)(F)F)c12 ?
> 7.00

Also CNc1cc(Nc2ccc(C(=O)N3CCOCC3)c3c2OCC3)nc2[nH]cc(C(F)(F)F)c12 ?
> 7.00

----------
Here's a roundup of pIC50 values tested on UniProt:P49759, taken from various published works.
pIC50: −log10 of the molar value.

The following compounds have reported results that may help.
In [3]: df
Out[3]:
                            molecule_smiles        result
0  COc1cc(S(C)(=O)=O)ccc1Nc1cc(NC2CCCC2)c2c(C#N)c[nH]c2n1  6.00 to 6.52
1  O=C(c1ccc(Nc2nc(NCC3CCC3)c3c(C(F)(F)F)c[nH]c3n2)c2c1CCO2)N1CCC(N2CCOCC2)CC1  6.00 to 6.52
2  CCNc1nc(Nc2ccc(P3(=O)CCN(C4CCOCC4)CC3)cc2OC)nc2[nH]cc(C(F)(F)F)c12        > 7.00
3  CCOc1nn(CCO)c2c1/C=C/c1n[nH]c3ccc(cc13)-c1cnn(C)c1O[C@@H](CC)CN(C)C2          8.31
4  CCCNc1cc(Nc2ccc(C(=O)N3CCOCC3)c3c2OCCO3)nc2[nH]cc(Cl)c12  6.00 to 6.52

What value of measured pIC50 is listed for COc1cc(S(=O)(=O)N2CCOCC2)ccc1Nc1nc(N[C@H]2CCOC2)c2c(C#N)c[nH]c2n1 ?
6.00 to 6.52

----------
Here's a roundup of pIC50 values tested on Dual specificity protein kinase CLK1 (Homo sapiens), taken from various published works.
pIC50: −log10 of the molar value.

The following compounds have reported results that may help.
In [3]: df
Out[3]:
                            molecule_smiles  result
0  CNc1nc(Nc2ccc(C(=O)N3CCN(C4COC4)CC3)c3c2OCCO3)nc2[nH]cc(C#N)c12  > 7.00
1  CCc1nn(C)c2c1/C=C/c1n[nH]c3ccc(cc13)-c1cnn(C)c1O[C@@H](C)CN(C)C2=O    9.07

What value of measured pIC50 is listed for COc1cc(S(=O)(=O)N2CCOCC2)ccc1Nc1cc(NCC(C)C)c2cc[nH]c2n1 ?
6.00 to 6.52
